# System: HEK-293T
# assay overview: Incucyte cell viability with HEK293T; further: unitless GR value; below 1 slowed growth and below 0 cell loss
# Format: toxicity, cell-based
# condition context: human, 24 h, 10 µM, compound concentration 10 uM, replicate number 2
As shown below, each of these molecules has a reported Growth Rate value.
Answer with a number only.

Previously resolved entries follow.
molecule=CCOC(=O)/N=C(\N)c1ccc(OCc2cccc(COc3ccc(C(C)(C)c4ccc(OC(=O)OCC)cc4)cc3)c2)cc1 measured_endpoint="Growth Rate" recorded_measurement=0.11
molecule=O=C(Cc1ccccc1)Nc1nnc(N2C[C@H]3C[C@@H]2CN3c2cccnn2)s1 measured_endpoint="Growth Rate" recorded_measurement=0.94
molecule=CCN1CCN(Cc2ccc(NC(=O)Nc3ccc(Oc4cc(NC)ncn4)cc3)cc2C(F)(F)F)CC1 measured_endpoint="Growth Rate" recorded_measurement=-0.21
molecule=Cc1nc2c([nH]1)c(=O)n(C)c(=O)n2Cc1ccco1 measured_endpoint="Growth Rate" recorded_measurement=0.88
molecule=Cn1cc(-c2ccc(N(C(=O)NCc3ccccc3)[C@H]3CC[C@H](Nc4ccc(C#N)cn4)CC3)cc2)ccc1=O measured_endpoint="Growth Rate" recorded_measurement=-0.39
molecule=O=C(Nc1ccc(Cl)nc1)c1ccc(Cl)cc1 measured_endpoint="Growth Rate" recorded_measurement=0.65
molecule=Cn1c(C2(NC(=O)c3ccc4c(C5CCCC5)c(-c5ncc(Br)cn5)n(C)c4c3)CCC2)nc2ccc(/C=C/C(=O)O)cc21 measured_endpoint="Growth Rate" recorded_measurement=0.85
molecule="CCOC(=O)C1=C(C)NC(C)=C(C(=O)OC)C1c1cccc([N+](=O)[O-])c1 (centres undefined)" measured_endpoint="Growth Rate" recorded_measurement=0.95

Inquiry: Fill blank: measured Growth Rate of the molecule O=c1cc(-c2ccccc2)oc2c1ccc1ccccc12 is ____.
Reply text: 0.88

* * *

# Tested on: U2OS
# assay overview: Incucyte cell viability with U2OS; further: unitless GR value; below 1 slowed growth and below 0 cell loss
# Assay type: toxicity, cell-based
# condition context: human, 0 h, 10 µM, compound concentration 10 uM, replicate number 1
As shown below, each of these molecules has a reported Growth Rate value.
Answer with a number only.

Previously resolved entries follow.
molecule="CC(C(=O)Nc1cc(C#N)ccc1CCCC(=O)O)c1ccc(F)c2ccccc12 (stereo not given)" recorded_measurement=0
molecule=Cl.Clc1ccc(OC[C@H]2CCN2)cn1 recorded_measurement=-0.28
molecule=CC(C)(O)CNC(=O)N1C(=O)N(c2cccc(C(F)(F)F)c2)C2=C(C(=O)CC2)[C@H]1c1ccc(C#N)cc1 recorded_measurement=0.26
molecule=CCOc1ccccc1C(=O)NCC1(N2CCN(CC)CC2)CCCCC1 recorded_measurement=-0.19
molecule=CNc1ncc2cc(-c3ccc(-c4cccc(C)n4)cc3Cl)c(=O)n(C[C@H]3OC[C@H](N)CO3)c2n1 recorded_measurement=0.31
molecule=CC1CCN(c2ccnc(NCc3cn(C)cn3)n2)CC1 recorded_measurement=-1
molecule=CN(C)CCC[C@@]1(c2ccc(F)cc2)OCc2cc(C#N)ccc21 recorded_measurement=0.18
molecule=Cc1ccc(CNc2ncnc3ccc(-c4ccc(CO)o4)cc23)o1 recorded_measurement=-0.83
molecule=COc1cc(-c2cn(C)c(=O)c3cnccc23)cc(OC)c1CN(C)C recorded_measurement=0.83

Could you now consider this next molecule?
Inquiry: Fill blank: measured Growth Rate of the molecule CC(C)N1CCN(Cc2cnc(-c3cc(-c4cccc5[nH]ccc45)cc4[nH]ncc34)o2)CC1 is ____.
Reply text: -0.99
